System Under Test: DLL4 (human, UniProt Q9NR61)
Sequence (Q9NR61 27-524): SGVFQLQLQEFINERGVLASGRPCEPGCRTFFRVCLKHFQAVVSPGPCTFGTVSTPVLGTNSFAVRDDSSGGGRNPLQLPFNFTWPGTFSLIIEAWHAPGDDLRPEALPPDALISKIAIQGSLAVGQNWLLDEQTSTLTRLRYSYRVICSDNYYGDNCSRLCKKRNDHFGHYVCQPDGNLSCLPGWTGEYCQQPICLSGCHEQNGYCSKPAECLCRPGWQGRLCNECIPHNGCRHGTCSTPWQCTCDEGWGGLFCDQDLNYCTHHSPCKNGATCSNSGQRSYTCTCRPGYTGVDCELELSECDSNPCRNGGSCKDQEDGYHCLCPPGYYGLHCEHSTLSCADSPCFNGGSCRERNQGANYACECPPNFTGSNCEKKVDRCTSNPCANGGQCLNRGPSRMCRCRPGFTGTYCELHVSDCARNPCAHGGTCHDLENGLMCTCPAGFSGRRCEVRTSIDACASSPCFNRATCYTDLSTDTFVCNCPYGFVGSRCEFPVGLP
Protocol Summary: ELISA
Recorded Endpoint: log10(EC50) (log10 of the value in pM)
// do not treat as linear: log10 of EC50, unit pM

Examples with their reported log10(EC50) follow.
{"Binder": "DVD452 DLL4 arm (antibody, V domains shown, DVD-Ig inner) VH: QVQLVQSGAEVKKPGASVKISCKASGYSFTAYYIHWVKQAPGQGLEWIGYISSYNGATNYNQKFKGRVTFTTDTSTSTAYMELRSLRSDDTAVYYCARDYDYDVGMDYWGQGTLVTVSS VL: DIVMTQSPDSLAVSLGERATISCRASESVDNYGISFMKWFQQKPGQPPKLLIYAASNQGSGVPDRFSGSGSGTDFTLTISSLQAEDVAVYYCQQSKEVPWTFGGGTKVEIKR", "Meas Value": 2.53}
{"Binder": "DVD468 DLL4 arm (antibody, DVD-Ig inner) chain 1: EVQLVESGGGLVQPGGSLRLSCAASGFTFTDNWISWVRQAPGKGLEWVGYISPNSGFTYYADSVKGRFTISADTSKNTAYLQMNSLRAEDTAVYYCARDNFGGYFDYWGQGTLVTVSS chain 2: DIQMTQSPSSLSASVGDRVTITCRASQDVSTAVAWYQQKPGKAPKLLIYSASFLYSGVPSRFSGSGSGTDFTLTISSLQPEDFATTYYCQQSYTGTVTFGQGTKVEIKR", "Meas Value": 3.36}
{"Binder": "DVD529 DLL4 arm (antibody, V domains shown, DVD-Ig outer) VH: EVQLQQSGPELEKPGASVKISCKASGYSFTGYNMNWVKQSNGKSLEWIGNIDPYFGGTNYNQKFKGKATLTVDKSSSTAYMQLKSLTSEDSAVYYCARNYDYDGGCFDYWGQGTTLTVSS VL: QAVVTQESALTTSPGETVTLTCRSSTGAVTTSNYANWVQEKPDHLFTGLIGGTNNRAPGVPARFSGSLIGDKAALTITGAQTEDEAIYFCALWYSNHWVFGGGTKLTVLG", "Meas Value": 2.00}
{"Binder": "DVD471 DLL4 arm (antibody, DVD-Ig outer) chain 1: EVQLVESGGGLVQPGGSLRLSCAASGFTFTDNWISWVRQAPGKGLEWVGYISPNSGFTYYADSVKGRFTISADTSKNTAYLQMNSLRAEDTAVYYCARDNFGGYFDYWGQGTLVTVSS chain 2: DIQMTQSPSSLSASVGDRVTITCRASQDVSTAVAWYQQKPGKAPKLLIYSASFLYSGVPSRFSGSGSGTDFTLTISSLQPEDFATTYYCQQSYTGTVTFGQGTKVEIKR", "Meas Value": 2.95}

Continue with the binder presented below.
*Q* Which measured log10(EC50) value corresponds to DVD485 DLL4 arm (antibody, DVD-Ig outer) chain 1: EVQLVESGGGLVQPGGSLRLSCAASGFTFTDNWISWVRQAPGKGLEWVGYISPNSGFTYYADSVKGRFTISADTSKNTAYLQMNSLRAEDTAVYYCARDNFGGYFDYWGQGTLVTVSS chain 2: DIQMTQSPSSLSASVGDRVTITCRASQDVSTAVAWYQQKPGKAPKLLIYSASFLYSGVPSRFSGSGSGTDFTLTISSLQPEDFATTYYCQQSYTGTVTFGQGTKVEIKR ?
*A* 3.15
